Collected literature values of IC50 measured for Oxytocin receptor (Rattus norvegicus).
Use µM as the unit, but write only the number.

Reference set, count: 5
Compound	Measure Unit	Recorded Value
CCOC(=O)c1ccc2n1Cc1ccccc1N(C(=O)c1ccc(N)c(C)c1)C2	µM	8.5
COc1cc(C(=O)N2CCCC(CC(=O)N3CCCN(C)CC3)c3cc(Cl)ccc32)ccc1NC(=O)c1ccccc1Br (stereo not drawn)	µM	0.162
CCOC(=O)NCCOC1CCCN(C(=O)c2ccc(NC(=O)c3ccccc3Cl)cc2OC)c2ccc(Cl)cc21 (stereo not drawn)	µM	0.451
Cc1ccccc1C(=O)Nc1ccc(C(=O)N2CCCC(CC(=O)N(C)C)c3cc(Cl)ccc32)cc1 (stereo not drawn)	µM	0.25
COc1cc(NC(=O)c2ccccc2Cl)ccc1C(=O)N1CCCC(OCCS(=O)(=O)c2ncc[nH]2)c2cc(Cl)ccc21 (stereo not drawn)	µM	0.849

Challenge: Fill in: IC50 of `Cc1ccc(F)cc1C(=O)Nc1ccc(C(=O)N2CCc3c[nH]nc3-c3ncccc32)cc1` is ___
Response given: 2.1

Challenge: Sample COc1cc(NC(=O)c2ccccc2C)ccc1C(=O)N1CCCC(OC(=O)CN2CCOCC2)c2cc(Cl)ccc21 (stereo not drawn) — what was its IC50?
Response given: 0.046

Challenge: Would you mind telling me what IC50 value was observed for Cc1cc(NC(=O)c2ccccc2Cl)ccc1C(=O)N1CCCC(CCNC2CC2)c2cc(Cl)ccc21 (stereo not drawn) ?
Response given: 2.9
